Test system: OVCAR-8 ovarian
Experiment: NCI tumour cell line growth inhibition, 48 h
Readout Kind: log10 of TGI (log10 of the value in µM)
Remember, log10 of TGI, in µM.

Solved cases below.
Molecule: c1ccc(NC2(c3nnnn3C3CCCCC3)CCNCC2)cc1
log10 of TGI: 1.91

Molecule: CCC/C(Cl)=N/OC(=O)Nc1cccc(F)c1
log10 of TGI: 1.57

Entry Nc1nc(SCC(=O)c2ccccc2)nc2nc3c(c(-c4ccccc4)c12)CCCC3 under OVCAR-8 ovarian had log10 of TGI of 1.95

Entry CC1(C)CC[C@]2(C(=O)O)CCC3(C)C(=CCC4[C@@]5(C)CC[C@H](OC6OCC(O)C(O)C6OC6OC(CO)C(O)C(O)C6O)C(C)(C)C5CC[C@]43C)C2C1 (stereo not given in full) under OVCAR-8 ovarian had log10 of TGI of 0.61

These measurements were taken from PubChem BioAssay (NCI).
